test system: Serr. Mar. IMM 16
Exercise: state measured MIC for each of the compounds provided.
Answer format: value, then unit.

Some solved entries appear below for comparison.
Compound | Tested System | MIC
CC(=O)N[C@H](CC(N)=O)C(=O)Nc1ccc(-c2ccc(C(=O)N[C@@H](C(=O)NC3C(=O)N4C(C(=O)O)=C(CSc5nnnn5C)CSC34)c3ccccc3)c(=O)[nH]2)cc1 (stereo partly shown) | Serr. Mar. IMM 16 | 25 µg/mL
CC(=O)N[C@H](C)C(=O)Nc1ccc(-c2ccc(C(=O)N[C@@H](C(=O)NC3C(=O)N4C(C(=O)O)=C(CSc5nnnn5CCC(=O)O)CSC34)c3ccccc3)c(=O)[nH]2)cc1 (stereo partly shown) | Serr. Mar. IMM 16 | 12.5 µg/mL
CC(=O)OCC1=C(C(=O)O)N2C(=O)C(NC(=O)[C@H](NC(=O)c3ccc(-c4ccc(NC(=O)[C@@H]5CCC(=O)N5)cc4)[nH]c3=O)c3ccccc3)C2SC1 (stereo partly shown) | Serr. Mar. IMM 16 | 50 µg/mL
CC(=O)N1CCC[C@H]1C(=O)Nc1ccc(-c2ccc(C(=O)N[C@@H](C(=O)NC3C(=O)N4C(C(=O)O)=C(CSc5nnnn5C)CSC34)c3ccccc3)c(=O)[nH]2)cc1 (stereo partly shown) | Serr. Mar. IMM 16 | 12.5 µg/mL
CC(=O)N[C@H](C)C(=O)Nc1ccc(-c2ccc(C(=O)N[C@@H](C(=O)NC3C(=O)N4C(C(=O)O)=C(CSc5nnnn5CC(=O)O)CSC34)c3ccccc3)c(=O)[nH]2)cc1 (stereo partly shown) | Serr. Mar. IMM 16 | 12.5 µg/mL
CC(=O)NC(C)C(=O)Nc1ccc(-c2ccc(C(=O)N[C@@H](C(=O)NC3C(=O)N4C(C(=O)O)=C(CSc5nnnn5C)CSC34)c3ccccc3)c(=O)[nH]2)cc1 (mixture of isomers) | Serr. Mar. IMM 16 | 12.5 µg/mL
CC(=O)N[C@H](C)C(=O)Nc1ccc(-c2ccc(C(=O)N[C@@H](C(=O)NC3C(=O)N4C(C(=O)O)=C(COC(C)=O)CSC34)c3ccccc3)c(=O)[nH]2)cc1 (stereo partly shown) | Serr. Mar. IMM 16 | 50 µg/mL
CC(=O)NC(C)(C)C(=O)Nc1ccc(-c2ccc(C(=O)N[C@@H](C(=O)NC3C(=O)N4C(C(=O)O)=C(COC(C)=O)CSC34)c3ccccc3)c(=O)[nH]2)cc1 (stereo partly shown) | Serr. Mar. IMM 16 | 50 µg/mL

// input: 2 compounds below; output: MIC for each
1. CC(=O)N[C@@H](C)C(=O)Nc1ccc(-c2ccc(C(=O)N[C@@H](C(=O)NC3C(=O)N4C(C(=O)O)=C(COC(C)=O)CSC34)c3ccccc3)c(=O)[nH]2)cc1 (stereo partly shown)
2. CC(=O)OCC1=C(C(=O)O)N2C(=O)C(NC(=O)[C@H](NC(=O)c3ccc(-c4ccc(NC(=O)[C@@H]5CCCN5C(C)=O)cc4)[nH]c3=O)c3ccccc3)C2SC1 (stereo partly shown)

50 µg/mL
50 µg/mL

====

system: Pseudomonas BRK 12-4-4; test: In vitro minimal inhibitory concentration, Pseudomonas BRK 12-4-4; type: cell-based; details: BRK1244
Would you mind telling me the reported MIC of each entry?
Numbers only, in µg/mL.

Compound | Tested System | Units Symbol | MIC
CC(=O)N[C@@H](CCC(N)=O)C(=O)Nc1ccc(-c2ccc(C(=O)N[C@@H](C(=O)NC3C(=O)N4C(C(=O)O)=C(CSc5nnnn5CC(=O)O)CSC34)c3ccccc3)c(=O)[nH]2)cc1 (stereo partly drawn) [Example 21] | Pseudomonas BRK 12-4-4 | µg/mL | 12.5
CC(=O)N[C@@H](C)C(=O)Nc1ccc(-c2ccc(C(=O)N[C@@H](C(=O)NC3C(=O)N4C(C(=O)O)=C(CSc5nnc(C)s5)CSC34)c3ccccc3)c(=O)[nH]2)cc1 (stereo partly drawn) [Example 15] | Pseudomonas BRK 12-4-4 | µg/mL | 12.5

So for CC(=O)OCC1=C(C(=O)O)N2C(=O)C(NC(=O)[C@H](NC(=O)c3ccc(-c4ccc(NC(=O)C5CCCN5C(C)=O)cc4)[nH]c3=O)c3ccccc3)C2SC1 (mixture of isomers) [Example 17] , the logged MIC turned out to be 25

====

Hi there, I'd appreciate the recorded MIC for every entry that follows.
tested on: Pseudomonas UI 18; assay: In vitro minimal inhibitory concentration, Pseudomonas UI 18; assay type: cell-based; settings: UI18
Answers are plain numbers, in µg/mL.

Known results for compounds:
Compound | Assay Readout | Units Symbol | Assay Value
CC(=O)N[C@@H](C)C(=O)Nc1ccc(-c2ccc(C(=O)N[C@@H](C(=O)NC3C(=O)N4C(C(=O)O)=C(CSc5nnnn5C)CSC34)c3ccccc3)c(=O)[nH]2)cc1 (some centres unmarked) [Example 20] | MIC | µg/mL | 12.5
CC(=O)N[C@H](C)C(=O)Nc1ccc(-c2ccc(C(=O)N[C@@H](C(=O)NC3C(=O)N4C(C(=O)O)=C(CSc5nnnn5C)CSC34)c3ccccc3)c(=O)[nH]2)cc1 (some centres unmarked) [Example 19] | MIC | µg/mL | 6.3
CC(=O)N[C@H](CCC(N)=O)C(=O)Nc1ccc(-c2ccc(C(=O)N[C@@H](C(=O)NC3C(=O)N4C(C(=O)O)=C(CSc5nnnn5CC(=O)O)CSC34)c3ccccc3)c(=O)[nH]2)cc1 (some centres unmarked) [Example 37] | MIC | µg/mL | 12.5
CC(=O)OCC1=C(C(=O)O)N2C(=O)C(NC(=O)[C@H](NC(=O)c3ccc(-c4ccc(NC(=O)[C@@H]5CCC(=O)N5)cc4)[nH]c3=O)c3ccccc3)C2SC1 (some centres unmarked) [Example 6] | MIC | µg/mL | 6.3

Okay, now this compound:
Entry CC(=O)N[C@@H](CCC(N)=O)C(=O)Nc1ccc(-c2ccc(C(=O)N[C@@H](C(=O)NC3C(=O)N4C(C(=O)O)=C(CSc5nnnn5CC(=O)O)CSC34)c3ccccc3)c(=O)[nH]2)cc1 (some centres unmarked) [Example 21] , MIC reported as 6.3

====

Heads up, these compounds all have MIC values measured for Klebs. Pneum. MGH 2.
Answers are plain numbers, in mg/L.

Below, each entry is followed by its recorded MIC result.
Compound | Assay Value
Cn1nnnc1SCC1=C(C(=O)O)N2C(=O)C(NC(=O)[C@H](NC(=O)c3ccc(-c4ccc(NC(=O)[C@@H]5CCC(=O)N5)cc4)[nH]c3=O)c3ccccc3)C2SC1 (stereo partly drawn) [Example 7] | 1.6
CC(=O)OCC1=C(C(=O)O)N2C(=O)C(NC(=O)[C@H](NC(=O)c3ccc(-c4ccc(NC(=O)[C@@H]5CC(OC(C)=O)CN5C(C)=O)cc4)[nH]c3=O)c3ccccc3)C2SC1 (stereo partly drawn) [Example 32] | 12.5

Continue with the compound presented below.
Kindly note the recorded MIC for CC(=O)N[C@H](CCC(N)=O)C(=O)Nc1ccc(-c2ccc(C(=O)N[C@@H](C(=O)NC3C(=O)N4C(C(=O)O)=C(CSc5nnnn5CC(=O)O)CSC34)c3ccccc3)c(=O)[nH]2)cc1 (stereo partly drawn) [Example 37] , which is 3.1

====

tested on: Pseudomonas UI 18; test: In vitro minimal inhibitory concentration, Pseudomonas UI 18; assay type: cell-based; details: UI18
Would you mind telling me the reported MIC of each entry?
Answers are plain numbers, in µg/mL.

# annotated cases, reported MIC shown
Molecule | MIC / µg/mL
CC(=O)N1CCC[C@H]1C(=O)Nc1ccc(-c2ccc(C(=O)N[C@@H](C(=O)NC3C(=O)N4C(C(=O)O)=C(CSc5nnnn5C)CSC34)c3ccccc3)c(=O)[nH]2)cc1 (some centres unmarked) [Example 2] | 12.5
CC(=O)NC(C)(C)C(=O)Nc1ccc(-c2ccc(C(=O)N[C@@H](C(=O)NC3C(=O)N4C(C(=O)O)=C(COC(C)=O)CSC34)c3ccccc3)c(=O)[nH]2)cc1 (some centres unmarked) [Example 11] | 6.3
CC(=O)NC(C)C(=O)Nc1ccc(-c2ccc(C(=O)N[C@@H](C(=O)NC3C(=O)N4C(C(=O)O)=C(CSc5nnc(C)s5)CSC34)c3ccccc3)c(=O)[nH]2)cc1 (mixture of isomers) [Example 22] | 12.5
CC(=O)N[C@@H](CCC(N)=O)C(=O)Nc1ccc(-c2ccc(C(=O)N[C@@H](C(=O)NC3C(=O)N4C(C(=O)O)=C(CSc5nnnn5C)CSC34)c3ccccc3)c(=O)[nH]2)cc1 (some centres unmarked) [Example 9] | 6.3

Sample CC(=O)OCC1=C(C(=O)O)N2C(=O)C(NC(=O)[C@H](NC(=O)c3ccc(-c4ccc(NC(=O)C5CCCN5C(C)=O)cc4)[nH]c3=O)c3ccccc3)C2SC1 (mixture of isomers) [Example 17] , system: Pseudomonas UI 18. Its MIC is 12.5

====

Let's go through some recorded MIC values for Entero Cloac. IM 11 together.
Answers are plain numbers, in µg/mL.

Examples with their reported MIC follow.
Compound | Units Symbol | MIC
CC(=O)OCC1=C(C(=O)O)N2C(=O)C(NC(=O)[C@H](NC(=O)c3ccc(-c4ccc(NC(=O)[C@@H]5CCCN5C(C)=O)cc4)[nH]c3=O)c3ccccc3)C2SC1 (stereo partly shown) | µg/mL | 12.5
CC(=O)NC(C)C(=O)Nc1ccc(-c2ccc(C(=O)N[C@@H](C(=O)NC3C(=O)N4C(C(=O)O)=C(COC(N)=O)CSC34)c3ccccc3)c(=O)[nH]2)cc1 (mixture of isomers) | µg/mL | 25
CC(=O)OCC1=C(C(=O)O)N2C(=O)C(NC(=O)[C@H](NC(=O)c3ccc(-c4ccc(NC(=O)[C@@H]5CC(O)CN5C(C)=O)cc4)[nH]c3=O)c3ccccc3)C2SC1 (stereo partly shown) | µg/mL | 12.5

// sample CC(=O)N[C@@H](CCC(N)=O)C(=O)Nc1ccc(-c2ccc(C(=O)N[C@@H](C(=O)NC3C(=O)N4C(C(=O)O)=C(COC(C)=O)CSC34)c3ccccc3)c(=O)[nH]2)cc1 (stereo partly shown) , its MIC was 12.5

Reference for the values: patent US4311698A
